molecular target: bromodomain BRD4 (44-168), BRD4 (333-460), and BRD4 (1-477 or 44-460) (Homo sapiens, UniProt O60885); construct: BRD4(44-168), BRD4(333-460), BRD4(44-460), BRD4(1-477), O60885-1; fused on or other part: N-terminal BirA biotinylation motif, biotinylated; The TVMV-cleavable His6 tag is removed, except in some BRD4(44-460) runs detected with anti-His terbium cryptate; test: Time Resolved Fluorescence Resonance Energy Transfer (TR-FRET) binding assay; details: one of the FRET assays described
The entries below are paired with their reported IC50.

COMPOUND | IC50
Cc1noc(C)c1-c1cc(C(N)=O)c2c3ccc(C(C)(C)O)c(F)c3n(C(CCC(F)(F)F)c3ccccc3)c2c1 (single isomer, unassigned) [Example 231] | < 0.05 µM
Cc1noc(C)c1-c1cc(C(N)=O)c2c3ccc(C(C)(C)O)c(F)c3n(C(c3ccccc3)C3CCC(F)(F)CC3)c2c1 (single isomer, unassigned) [Example 227] | < 0.05 µM
CNC(=O)c1cc(-c2c(C)noc2C)cc2c1c1cc(C(=O)N3CC(F)C3)ccc1n2C(C)c1ccc(F)cc1 (stereo not drawn) [Example 112] | < 0.5 µM

* * *

IC50 values, listed per item
target: bromodomain BRD4 (44-168), BRD4 (333-460), and BRD4 (1-477 or 44-460) (Homo sapiens); construct: BRD4(44-168), BRD4(333-460), BRD4(44-460), BRD4(1-477), O60885-1; fused on or other part: N-terminal BirA biotinylation motif, biotinylated; The TVMV-cleavable His6 tag is removed, except in some BRD4(44-460) runs detected with anti-His terbium cryptate; assay: Time Resolved Fluorescence Resonance Energy Transfer (TR-FRET) binding assay; settings: one of the FRET assays described
MEASURED ENDPOINT: IC50

COMPOUND | MEASURED ON | MEASURED RESULT
Cc1noc(C)c1-c1ccc2c3cc(C(=O)N4CC(C)OC(C)C4)ccc3n(CC(F)F)c2c1 (stereo not shown) [Example 7] | bromodomain BRD4 (44-168), BRD4 (333-460), and BRD4 (1-477 or 44-460) (Homo sapiens) | < 500 nM
Cc1noc(C)c1-c1cc(C(N)=O)c2c3cc(C(=O)N4CC(C)OC(C)C4)ccc3n(Cc3ccccc3)c2c1 (stereo not shown) [Example 69] | bromodomain BRD4 (44-168), BRD4 (333-460), and BRD4 (1-477 or 44-460) (Homo sapiens) | < 50 nM
Cc1noc(C)c1-c1cc(C(N)=O)c2c3cc(NC(=O)N(C)C)ccc3n(Cc3ccccc3)c2c1 [Example 147] | bromodomain BRD4 (44-168), BRD4 (333-460), and BRD4 (1-477 or 44-460) (Homo sapiens) | < 50 nM
COC1CCN(C(=O)c2ccc3c(c2)c2c(C(N)=O)cc(-c4c(C)noc4C)cc2n3Cc2ccccc2)CC1 [Example 70] | bromodomain BRD4 (44-168), BRD4 (333-460), and BRD4 (1-477 or 44-460) (Homo sapiens) | < 50 nM
Cc1noc(C)c1-c1cc(C(N)=O)c2c3cc(C(=O)N(C)C)ccc3n(Cc3ccccc3)c2c1 [Example 48] | bromodomain BRD4 (44-168), BRD4 (333-460), and BRD4 (1-477 or 44-460) (Homo sapiens) | < 50 nM
Cc1noc(C)c1-c1ccc2c3cc(C(=O)N4CC(C)OC(C)C4)ccc3n(CC3CC3)c2c1 (stereo not shown) [Example 5] | bromodomain BRD4 (44-168), BRD4 (333-460), and BRD4 (1-477 or 44-460) (Homo sapiens) | < 500 nM
Cc1noc(C)c1-c1cc(C(N)=O)c2c3cc(N4CCOC4=O)ccc3n(Cc3ccc(F)cc3)c2c1 [Example 152] | bromodomain BRD4 (44-168), BRD4 (333-460), and BRD4 (1-477 or 44-460) (Homo sapiens) | < 50 nM

Reference source: patent US9492460B2
